Please respond with reported inhibition for every item in the list.
Target: Bifunctional dihydrofolate reductase-thymidylate synthase (Leishmania major) (UniProt P07382)
Sequence (P07382 whole entry, looked up): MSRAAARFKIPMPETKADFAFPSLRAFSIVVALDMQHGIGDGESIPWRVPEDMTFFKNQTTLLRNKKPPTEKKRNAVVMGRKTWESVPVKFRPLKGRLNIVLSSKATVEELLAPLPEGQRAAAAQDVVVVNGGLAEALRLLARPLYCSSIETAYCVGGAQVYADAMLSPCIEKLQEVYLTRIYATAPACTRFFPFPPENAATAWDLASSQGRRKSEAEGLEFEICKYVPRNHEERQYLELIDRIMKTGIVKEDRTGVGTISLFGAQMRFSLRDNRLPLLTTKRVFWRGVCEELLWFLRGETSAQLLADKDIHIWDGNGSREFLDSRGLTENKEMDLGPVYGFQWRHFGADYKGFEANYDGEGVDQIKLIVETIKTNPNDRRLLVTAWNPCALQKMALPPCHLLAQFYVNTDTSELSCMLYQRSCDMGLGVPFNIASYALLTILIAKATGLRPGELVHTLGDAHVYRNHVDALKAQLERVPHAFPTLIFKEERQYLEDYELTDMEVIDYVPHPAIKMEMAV
Test: Percent inhibition of compound against recombinant Leishmanial major dihydrofolate reductase at a concentration of 100 uM

Just so you know, measured inhibition for COC(=O)/C(C#N)=C/c1ccc(/C=C/c2ccccn2)cc1 came out at 32%

Record COC(=O)N[C@H](C(=O)OC)[C@H](O)[C@@H](C)c1c(C)nc2n(C)c3ncn(Cc4ccccc4)c3c(=O)n12 . Reported inhibition: 24%

// recorded inhibition for CCn1ncc2c1n/c(=N\c1ccccc1)n1ccc3ccccc3c21 : 28%

Looking up O=c1[nH]c(=O)n([C@H]2C[C@H](O)[C@@H](CO)O2)c2nc(-c3ccccc3)c(-c3ccccc3)nc12 , I see its inhibition listed as 50%

Lab book: inhibition of CCOC(=O)/C(C#N)=C/c1ccc(/C=C/c2ccccn2)cc1 noted as 50%

====

Tested on: Leishmania donovani
Experiment: In vitro inhibition of compound against Leishmania donovani was determined
Format: functional, organism-based
Answer each item with its documented IC50.
All answers are understood in µM, so give the number only.

Consider CCOC(=O)/C(C#N)=C/c1ccc(/C=C/c2ccccn2)cc1 . Its measured IC50 is 47

response.value for COC(=O)/C(C#N)=C/c1ccc(/C=C/c2ccccn2)cc1 (field: IC50) = 56

What the record says about CCn1ncc2c1n/c(=N\c1ccccc1)n1ccc3ccccc3c21 : IC50 is 54

get_value(item= O=c1[nH]c(=O)n([C@H]2C[C@H](O)[C@@H](CO)O2)c2nc(-c3ccccc3)c(-c3ccccc3)nc12 , readout=IC50) returns 69
